Target Of Assay: HLA-B*07:02
Experiment Notes: IEDB peptide-MHC binding, purified MHC/competitive/radioactivity; filed as Kd, often an IC50 or EC50 that approximates it; bounds were set here for any values at or beyond the usual limits of such assays
Assay Context: source organism: Dengue virus 3 Singapore/8120/1995
Measured Parameter: pKd
Please express pKd as -log10 of the molar concentration.

(Q) Record lookup: for HLA-B*07:02, what pKd belongs to "RPTPKGTVMD" ?
(A) 7.21

---

Target Of Assay: HLA-B*35:01
Experiment Notes: IEDB peptide-MHC binding, purified MHC/competitive/fluorescence; filed as Kd, often an IC50 or EC50 that approximates it; bounds were set here for any values at or beyond the usual limits of such assays
Assay Context: source organism: Mycobacterium tuberculosis H37Ra
pKd: −log10 of the molar value.
Measured Parameter: pKd

(Q) Query: pKd; subject: "AVYLLDGLR"
(A) ≤ 4.70

The measurements presented in this section are drawn from the Immune Epitope Database (IEDB).
